# Study target: Tyrosinase (Agaricus bisporus, UniProt O42713)
# Sequence (O42713 whole entry): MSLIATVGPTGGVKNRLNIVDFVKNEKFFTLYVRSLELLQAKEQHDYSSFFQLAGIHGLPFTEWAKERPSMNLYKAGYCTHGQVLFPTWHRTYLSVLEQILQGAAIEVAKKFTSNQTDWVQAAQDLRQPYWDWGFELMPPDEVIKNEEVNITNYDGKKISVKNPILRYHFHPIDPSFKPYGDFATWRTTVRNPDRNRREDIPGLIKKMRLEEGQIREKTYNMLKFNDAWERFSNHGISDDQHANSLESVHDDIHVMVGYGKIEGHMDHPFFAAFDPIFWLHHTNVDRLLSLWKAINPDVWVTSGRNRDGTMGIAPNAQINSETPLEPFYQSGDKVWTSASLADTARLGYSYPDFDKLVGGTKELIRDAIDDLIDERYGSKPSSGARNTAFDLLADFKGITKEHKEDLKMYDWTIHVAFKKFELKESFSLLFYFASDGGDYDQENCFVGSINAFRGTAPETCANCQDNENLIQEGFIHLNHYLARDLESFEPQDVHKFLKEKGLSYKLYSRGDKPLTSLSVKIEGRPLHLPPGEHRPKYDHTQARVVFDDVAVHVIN
Returns: string. Value is 1 (yes) if measured IC50 is below 6 µM, and 0 (no) if it is greater than or equal to it.

Illustrative cases are given below, each with its answer.
COc1cc(C=C2C(=O)NC(=O)NC2=O)ccc1O
1 (yes)
O=C1NC(=S)NC(=O)C1=Cc1ccc(O)c(O)c1O
0 (no)
COc1ccc(C=C2C(=O)NC(=S)NC2=O)cc1
0 (no)

--- query ---
# input Does the reported IC50 of the following molecule sit strictly below 6 µM? "O=C1NC(=O)C(=Cc2cc(O)c(O)c(O)c2)C(=O)N1"
# output 1 (yes)
